Tested on: polio-2 virus
Test: microbe, parasite or virus in culture
Format: cell-based
Conditions: read-out: MIC vs. polio-2 virus
API: label(entry) gives met if the entry's MIC is strictly smaller than 0.2 mg/L; on equality or larger values it gives not met.

1) Cc1cc(CCCCCCCOc2ccc(Cl)cc2)on1 [Example 14] : not met
2) COc1ccc(OCCCCCc2cc(C)on2)c(Cl)c1 [Example 41] : not met
3) COc1ccc(OCCCCCCCc2cc(C)no2)c(Cl)c1 [Example 2] : met
4) Cc1ccc(OCCCCCCCc2cc(C)no2)c(Cl)c1 [Example 15] : not met
5) Cc1cc(CCCCCCCOc2ccc([N+](=O)[O-])cc2)on1 [Example 37(b)] : not met
6) Cc1cc(CCCCCCCOc2ccc(C(=O)N(C)C)cc2)on1 [Example 35(b)] : not met
7) COc1ccc(OCCCCCCCc2cc(C)no2)c([N+](=O)[O-])c1 [Example 38] : met
